# Tested on: mammary gland breast cancer (MCF-7)
# assay notes: Antitumor screening using MTT assay
# run parameters: Homo sapiens, MCF7, read-out: Average of Relative viability of cells (%)
measured parameter: viability at 25 µM (%)
Give just the number in %; leave the unit off.

{"columns": ["compound", "viability at 25 µM (%)"],
 "data": [
  ["C/C(=N\\NC(=O)Nc1ccc(Cl)cc1)c1cc2ccccc2o1 [Compound 7]", 70.2]
]}

Quick one: viability at 25 µM of COc1ccccc1/C=N/N=C(\C)c1cc2ccccc2o1 [Compound 10] ? 65.2

# get_value(readout='viability at 25 µM', item= C/C(=N\NC(=S)Nc1ccc(Cl)cc1)c1cc2ccccc2o1 [Compound 8] ) 28.3

Quick one: viability at 25 µM for COc1ccc(/C=N/N=C(\C)c2cc3ccccc3o2)cc1OC [Compound 9] ? 50.6

What value of measured viability at 25 µM is listed for C\C(=N/N=C/C=C/c1ccccc1)c1cc2ccccc2o1 [Compound 12] ? 70.2

What value of viability at 25 µM has been recorded for this entry: O=C(/C=C/N1CCCCC1)c1cc2ccccc2o1 [Compound 5] 41.8

====

# assay notes: In vitro cytotoxicity against human normal cell line (MTT)
# Assay type: cell-based
# run parameters: human, WI38 human lung fibroblast cells (normal cell line); WI38; Conc. 6.25 µM; read-out: Average of Relative viability of cells (%)
measured parameter: viability at 6.25 µM (%)
Give your result in % as a bare value.

Example cases with answers are listed next.
{"columns": ["compound", "observed measurement"],
 "data": [
  ["C\\C(=N/N=C/C=C/c1ccccc1)c1cc2ccccc2o1 [Compound 12]", 91.3],
  ["C/C(=N\\NC(=S)Nc1ccc(Cl)cc1)c1cc2ccccc2o1 [Compound 8]", 89.3],
  ["C/C(=N\\NC(=O)Nc1ccc(Cl)cc1)c1cc2ccccc2o1 [Compound 7]", 100]
]}

--- query ---
Please look up its viability at 6.25 µM: O=C(/C=C/N1CCCCC1)c1cc2ccccc2o1 [Compound 5] 100

====

# viability at 12.5 µM listing for each entry below
# Tested on: Hepatocellular carcinoma (HePG2)
# assay notes: Antitumor screening using MTT assay
# Format: cell-based, human
# run parameters: Homo sapiens, Conc. 12.5 µM, read-out: Average of Relative viability of cells (%)
// note: answer is a bare numeric in %

// known answers, use as guide
{"columns": ["compound", "tested on", "measure unit", "observed measurement"],
 "data": [
  ["COc1ccccc1/C=N/N=C(\\C)c1cc2ccccc2o1 [Compound 10]", "Hepatocellular carcinoma (HePG2)", "%", 72.7],
  ["O=C(/C=C/N1CCCCC1)c1cc2ccccc2o1 [Compound 5]", "Hepatocellular carcinoma (HePG2)", "%", 42.3]
]}

For the compound shown here, C/C(=N\NC(=O)Nc1ccc(Cl)cc1)c1cc2ccccc2o1 [Compound 7] , give the reported viability at 12.5 µM. 87.4

Fill in the blank: the reported viability at 12.5 µM of C/C(=N\NC(=S)Nc1ccc(Cl)cc1)c1cc2ccccc2o1 [Compound 8] is ____. 24.9

Query (compound): COc1ccc(/C=N/N=C(\C)c2cc3ccccc3o2)cc1OC [Compound 9] ; field requested: viability at 12.5 µM 60.5

viability at 12.5 µM for C\C(=N/N=C/C=C/c1ccccc1)c1cc2ccccc2o1 [Compound 12] ? 91.3
